# target: T1, Recombinant Human CD14/His Protein (B294801) (human, UniProt P08571 20-352, limits assumed)
# T1 construct: Bought His-tagged recombinant human CD14; also called recombinant human CD14 antigen; CD14 antigen; not shown: histidine tag
# T1 sequence (looked up): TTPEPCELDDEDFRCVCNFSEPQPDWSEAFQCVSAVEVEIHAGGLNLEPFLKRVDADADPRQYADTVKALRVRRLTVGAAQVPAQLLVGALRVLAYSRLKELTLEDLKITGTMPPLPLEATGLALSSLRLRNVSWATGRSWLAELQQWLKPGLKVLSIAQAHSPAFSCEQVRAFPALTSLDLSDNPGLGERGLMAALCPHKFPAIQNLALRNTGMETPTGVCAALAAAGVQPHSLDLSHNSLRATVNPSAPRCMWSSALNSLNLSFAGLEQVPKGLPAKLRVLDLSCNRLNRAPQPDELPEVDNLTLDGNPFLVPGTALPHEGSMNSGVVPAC
# assay overview: SPR (Biacore 8K), antibody captured on Protein A chip, CD14-His analyte 0.78125-25 nM, 1:1 binding
measurement kind: Change Factor (KD relative to mouse antibody D6DD3D001)

>>> test_value("Antibody No. D6DD3D001 (HU1127-mVH/mVL) (antibody, human IgG1, kappa, V domains shown, Mouse variable domains of Atibuclimab on human IgG1 constant regions (hFc, 146 kDa); also called Original IgG1 antibody; mouse antibody) VH: DVQLQQSGPGLVKPSQSLSLTCTVTGYSITSDSAWNWIRQFPGNRLEWMGYISYSGSTSYNPSLKSRISITRDTSKNQFFLQLNSVTTEDTATYYCVRGLRFAYWGQGTLVTVSS VL: DIVLTQSPASLAVSLGQRATISCRASESVDSYVNSFLHWYQQKPGQPPKLLIYRASNLQSGIPARFSGSGSRTDFTLTINPVEADDVATYYCQQSNEDPYTFGGGTKLEIKR")
1
